Tested on: MCF10A
Assay: one-nucleolus phenotype percent effect (relative to siNT 0% and siNOL11 100%); higher = more cells with one nucleolus (ribosome biogenesis inhibition)
Conditions: 20 nM; 72 h
Parameter threshold = 10%. Response is MET when one-nucleolus phenotype percent effect meets or exceeds it, else NOT MET.

Tell me whether one-nucleolus phenotype percent effect is at least 10% here: GCUGGGCAGGGCUUCUGAGCUCCUU [hsa-miR-612]
MET

Tell me whether one-nucleolus phenotype percent effect is at least 10% here: GGUCUAGGCCCGGUGAGAGACUC [hsa-miR-8078]
NOT MET

Tell me whether one-nucleolus phenotype percent effect is at least 10% here: GGUAGUGAGUUAUCAGCUAC [hsa-miR-6073]
NOT MET

Tell me whether one-nucleolus phenotype percent effect is at least 10% here: CUGCAGGCAGAAGUGGGGCUGACA [hsa-miR-6511b-5p]
MET

Tell me whether one-nucleolus phenotype percent effect is at least 10% here: AUAAGACGAACAAAAGGUUUGU [hsa-miR-208b]
NOT MET

###

System: MCF10A
Experiment: 5+ nucleoli phenotype percent effect (relative to siNT 0% and siKIF11 100%); higher = more cells with five or more nucleoli
Details: 20 nM; 72 h
Measured 5+ nucleoli phenotype percent effect accompanies every entry in the list below.
Write the answer as a number in %, unit excluded.

Example results:
AGGUUCUGUGAUACACUCCGACU [hsa-miR-152-5p] | -38.1
AGGGGACUGGUUAAUAGAACUA [hsa-miR-4652-5p] | -5.22
AGAGGUAUAGGGCAUGGGAA [hsa-miR-202-3p] | 3.86
AGCAGAAGCAGGGAGGUUCUCCCA [hsa-miR-298] | -22.8

For the next question, use this sequence.
Respond only with 5+ nucleoli phenotype percent effect recorded for UAGCAAUACAGUACAAAUAUAGU [hsa-miR-4703-5p]
32.3

###

Measured one-nucleolus phenotype percent effect accompanies every entry in the list below.
System: MCF10A
Assay: one-nucleolus phenotype percent effect (relative to siNT 0% and siNOL11 100%); higher = more cells with one nucleolus (ribosome biogenesis inhibition)
Conditions: 20 nM; 72 h
Write the answer as a number in %, unit excluded.

Example results:
GCUGACAGCAGGGCUGGCCGCU [hsa-miR-4526] | -0.679
CGCUUUGCUCAGCCAGUGUAG [hsa-miR-1251-3p] | 18.6
UAGUACCAGUACCUUGUGUUCA [hsa-miR-624-5p] | -2.83
AUACAUGUCAGAUUGUAUGCC [hsa-miR-4666a-5p] | -5.95

Respond only with one-nucleolus phenotype percent effect recorded for UAAGGCACCCUUCUGAGUAGA [hsa-miR-506-3p]
57.2

Respond only with one-nucleolus phenotype percent effect recorded for CCUCUUCCCCUUGUCUCUCCAG [hsa-miR-1236-3p]
-6.25

Respond only with one-nucleolus phenotype percent effect recorded for CAGUGCAAGUGUAGAUGCCGA [hsa-miR-3666]
-18.2

Respond only with one-nucleolus phenotype percent effect recorded for UUAGUCCUGCCUGUAGGUUUA [hsa-miR-4540]
8.27

Respond only with one-nucleolus phenotype percent effect recorded for UAUACCUCAGUUUUAUCAGGUG [hsa-miR-875-5p]
-18.7

Respond only with one-nucleolus phenotype percent effect recorded for UACAUGGAUGGAAACCUUCAAGC [hsa-miR-4802-3p]
-8.74

Respond only with one-nucleolus phenotype percent effect recorded for GUAGGGGCGUCCCGGGCGCGCGGG [hsa-miR-6789-5p]
-25.6

Respond only with one-nucleolus phenotype percent effect recorded for GCCCAGGACUUUGUGCGGGGUG [hsa-miR-6840-3p]
-16.9

Respond only with one-nucleolus phenotype percent effect recorded for AAUGUUUUUUCCUGUUUCC [hsa-miR-4307]
-12.3

Respond only with one-nucleolus phenotype percent effect recorded for AGGCUGGAGUGAGCGGAG [hsa-miR-4430]
57.5

Respond only with one-nucleolus phenotype percent effect recorded for CUAUACAACCUACUGCCUUCCC [hsa-let-7b-3p]
10.1

Respond only with one-nucleolus phenotype percent effect recorded for UCAGGCCAGGCACAGUGGCUCA [hsa-miR-1972]
-4.54
